- target_or_test_system: Jak2 (a.a. 828-1132) (Homo sapiens)
- Construct: Jak2 (a.a. 828-1132); His tag (N); made in house; host or cells: insect cells (baculovirus)
- Sequence (O60674 828-1132): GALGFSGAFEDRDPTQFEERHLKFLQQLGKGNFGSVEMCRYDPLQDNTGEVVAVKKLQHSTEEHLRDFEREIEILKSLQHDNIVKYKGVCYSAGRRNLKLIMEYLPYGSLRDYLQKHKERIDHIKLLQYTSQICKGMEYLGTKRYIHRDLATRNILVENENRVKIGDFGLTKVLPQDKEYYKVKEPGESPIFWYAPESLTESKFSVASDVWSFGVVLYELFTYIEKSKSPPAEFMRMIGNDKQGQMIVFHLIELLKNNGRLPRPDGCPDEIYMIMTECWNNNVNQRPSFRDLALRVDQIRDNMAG
- assay_protocol: In vitro JAK kinase assay (HTRF, phosphorylation of a biotinylated peptide), JAK2, reported as JAK2/JAK1 ratio
- Assay type: biochemical
- measurement_context: Assay Conditions 1 mM ATP
Counter-ions that a name gives are not always drawn.
measurement_type: JAK2/JAK1 IC50 ratio

N#CCC(C1CCN(c2ncc3cccc(F)c3n2)C1)n1cc(-c2ncnc3[nH]ccc23)cn1 (stereo not drawn) [Example 46]	3.7
N#Cc1ccnc(N2CC[C@H](C(CF)n3cc(-c4ncnc5[nH]ccc45)cn3)C2)c1C#N (stereo partly drawn) [Example 120, trifluoroacetate]	3.5
N#CCC(C1CCN(c2nc3cccc(F)c3o2)C1)n1ccc(-c2ncnc3[nH]ccc23)c1 (single isomer, unassigned) [Example 158-2]	19.0
N#CC[C@@H]([C@H]1CCN(c2scc(Cl)c2C#N)C1)n1cc(-c2ncnc3[nH]ccc23)cn1 [Example 78]	32.1
N#CC[C@@H]([C@H]1CCN(c2ncc3ncsc3n2)C1)n1cc(-c2ncnc3[nH]ccc23)cn1 [Example 102, bis(trifluoroacetate)]	12.8

[P] N#CCC(C1CCN(c2ccc3c(n2)[S+]([O-])CC3)C1)n1cc(-c2ncnc3[nH]ccc23)cn1 (single isomer, unassigned) [Example 28]
[Q] O=S1(=O)CCc2cc(F)c(N3CC[C@H](C(CF)n4cc(-c5ncnc6[nH]ccc56)cn4)C3)nc21 (stereo partly drawn) [Example 86, (trifluoroacetate)]
Prompt: Hi team, can someone confirm which has the larger JAK2/JAK1 IC50 ratio: P or Q ? Thanks. Indicate your choice by writing its label.
Completion: Q

[P] N#CC[C@@H]([C@H]1CCN(c2nc(Cl)ccc2F)C1)n1cc(-c2ncnc3[nH]ccc23)cn1 [Example 94, trifluoroacetate]
[Q] N#CC[C@@H]([C@H]1CCN(c2c(F)cc(F)c(F)c2C#N)C1)n1cc(-c2ncnc3[nH]ccc23)cn1 [Example 61, trifluoroacetate salt]
Prompt: Identify the entry with the smaller JAK2/JAK1 IC50 ratio: P or Q . Refer to your chosen item by its label in the answer.
Completion: Q
(Q: 6.4, P: 17.9)

[A] N#CCC(C1CCN(c2nc3cccc(Br)c3o2)C1)n1cc(-c2ncnc3[nH]ccc23)cn1.O=C(O)C(F)(F)F (single isomer, unassigned) [Example 159]
[B] N#CCC(C1CCN(c2ncc3ccoc3c2C#N)C1)n1ccc(-c2ncnc3[nH]ccc23)c1 (racemic) [Example 170-rac]
[C] N#CCC(C1CCN(c2nc3cccnc3o2)C1)n1ccc(-c2ncnc3[nH]ccc23)c1 (single isomer, unassigned) [Example 33, phosphate]
Prompt: Sort entries by JAK2/JAK1 IC50 ratio from minimum to maximum value. Ranked list of labels, please, in the requested order.
Completion: B, A, C
(B: 4.5, A: 12.9, C: 34)

[1] N#CC[C@@H]([C@H]1CCN(c2nc(Br)ccc2F)C1)n1cc(-c2ncnc3[nH]ccc23)cn1.O=C(O)C(F)(F)F.O=C(O)C(F)(F)F [Example 88]
[2] N#CCC(C1CCN(c2ncc3c(c2C#N)S(=O)(=O)CC3)C1)n1ccc(-c2ncnc3[nH]ccc23)c1 (racemic) [Example 171-rac]
Prompt: Could you check which of 1 and 2 has a smaller value for JAK2/JAK1 IC50 ratio? Mark your selection by writing its label.
Completion: 2
